protocol_text: solvent given as SMILES
run_conditions: in CNC=O
measured_endpoint: solvation free energy, 298 K (kcal/mol)
Hi! Could you send only the number? It should be in kcal/mol, unit omitted.

Sample records with solvation free energy, 298 K:
| line_notation | measured_endpoint | unit_abbreviation | assay_result |
| --- | --- | --- | --- |
| CC(C)C(C)C(C)C | solvation free energy, 298 K | kcal/mol | -3.19 |
| c1ccc2cc3ccccc3cc2c1 | solvation free energy, 298 K | kcal/mol | -10.4 |

Q) What value of solvation free energy, 298 K has been recorded for this entry: `CCO`
A) -4.96

Q) Return reported solvation free energy, 298 K; argument: `CCOCC`
A) -2.66

Q) Which solvation free energy, 298 K value belongs to `CCCCCCCC` ?
A) -3.34

###

protocol_text: solvent given as SMILES
run_conditions: in CCCCCO
Assign label 1 whenever solvation free energy, 298 K does not fall below -7 kcal/mol; assign label 0 whenever it does.

| compound | label |
| --- | --- |
| CCO | label 1 |
| O=C(O)c1ccc(Cl)c([N+](=O)[O-])c1 | label 0 |

Q) Please indicate if the recorded solvation free energy, 298 K for `NC(=O)c1ccccc1O` meets or exceeds -7 kcal/mol.
A) label 0

Q) Reported solvation free energy, 298 K at or above -7 kcal/mol? `CC(C)C(C)C`
A) label 1

Q) Check if solvation free energy, 298 K >= -7 kcal/mol (inclusive). Item: CCC(C)C(=O)OC1CC(C)C=C2C=CC(C)C(CCC3CC(O)CC(=O)O3)C21 (stereo not drawn)
A) label 0

Q) Determine whether measured solvation free energy, 298 K meets or exceeds -7 kcal/mol for `c1ccc2c(c1)Sc1ccccc1S2`
A) label 0

Q) Form field: solvation free energy, 298 K at least -7 kcal/mol? Entry: `CCc1ccc2c(c1)C(=O)c1ccccc1C2=O`
A) label 0

###

Measured solvation free energy, 298 K, listed per entry for reference.
protocol_text: solvent given as SMILES
run_conditions: in CN1CCCC1=O
Field: numeric (kcal/mol). Do not append units.

Some solved entries appear below for comparison.
| line_notation | solvation free energy, 298 K (kcal/mol) |
| --- | --- |
| C1=CCC=C1 | -3.33 |
| FCF | -1.69 |
| C1CCOC1 | -4.04 |
| FC(F)(F)Cl | 0.23 |
| C=COC(C)=O | -4.16 |

Q) Requested read-out: solvation free energy, 298 K. Entry: `CC(C)=O`
A) -3.94

Q) Which solvation free energy, 298 K reading was recorded for the compound `C[N+](=O)[O-]` ?
A) -5.53

Q) # lookup: solvation free energy, 298 K of `c1ccc2cc3ccccc3cc2c1`
A) -12

Q) Please give the measured solvation free energy, 298 K for this compound: `CCCCCC`
A) -2.65

Q) Which measured solvation free energy, 298 K value corresponds to `CCCCCCC` ?
A) -3.2

Q) GET /values?readout=solvation free energy, 298 K&item= `CC(C)C(C)C(C)C`
A) -3.6

Q) # query: solvation free energy, 298 K of entry `C=CC=CCC`
A) -3.67

###

Reported solvation free energy, 298 K values follow for various compounds
protocol_text: solvent given as SMILES
run_conditions: in CCCOC(C)=O
# value in kcal/mol; strip the unit string

| compound | solvation free energy, 298 K, kcal/mol |
| --- | --- |
| NC(=O)c1ccccc1O | -12.4 |
| O=C(O)c1ccc(Cl)c([N+](=O)[O-])c1 | -12.8 |
| O=C(O)c1cc([N+](=O)[O-])ccc1Cl | -12.6 |
| CCC(C)C(=O)OC1CC(C)C=C2C=CC(C)C(CCC3CC(O)CC(=O)O3)C21 (stereo not given) | -25.1 |

Q) Item under review: `c1ccc2cc3ccccc3cc2c1` . Reported solvation free energy, 298 K?
A) -11.1

###

Property: solvation free energy, 298 K; scope: individual compounds
protocol_text: solvent given as SMILES
run_conditions: in CC(=O)OCc1ccccc1
Report the figure in kcal/mol without appending any unit label.

| line_notation | solvation free energy, 298 K (kcal/mol) |
| --- | --- |
| CC(C)=O | -3.69 |
| CCI | -3.91 |
| C1=CCC=C1 | -2.92 |

Q) Could you share which solvation free energy, 298 K value was measured for `CCOC(C)=O` ?
A) -4.29

Q) Recorded solvation free energy, 298 K for `CCCCCC` , please?
A) -3.02

Q) Fill in the blank: the reported solvation free energy, 298 K of `CCCCl` is ____.
A) -3.4

Q) # input compound: `CC#N` ; wanted: its solvation free energy, 298 K
A) -4.08

Q) Need solvation free energy, 298 K of `CI` , thanks.
A) -3.34

###

protocol_text: solvent given as SMILES
run_conditions: in Cc1cccc(O)c1
In plain terms, low solvation free energy, 298 K, meaning strictly below -4 kcal/mol, gives yes (1), and everything else gives no (0).

Consider the following illustrative entries.
| line_notation | label |
| --- | --- |
| CCCCC | no (0) |
| C[N+](=O)[O-] | yes (1) |
| CCO | yes (1) |

Q) Does the reported solvation free energy, 298 K of `CCCCCCC` stay below -4 kcal/mol?
A) no (0)

Q) Please let me know if `CCCCCC` shows solvation free energy, 298 K below -4 kcal/mol.
A) no (0)

Q) Quick check: does `CC=C(C)C` have solvation free energy, 298 K under -4 kcal/mol?
A) no (0)

###

protocol_text: solvent given as SMILES
run_conditions: in CCCCCCCC
measured_endpoint: solvation free energy, 298 K (kcal/mol)
Report the figure in kcal/mol without appending any unit label.

Example results:
| molecule | solvation free energy, 298 K [kcal/mol] |
| --- | --- |
| Oc1ccc2ccccc2c1 | -8.63 |
| CCCCC(C)=O | -4.6 |
| CCCCCCC | -4.62 |

Okay, next one:
Q) What measured solvation free energy, 298 K goes with `C=C(C)C` ?
A) -2.41

###

protocol_text: solvent given as SMILES
run_conditions: in CCN(CC)CC
measured_endpoint: solvation free energy, 298 K (kJ/mol)
Lab book: enter the figure in kJ/mol, no units written.

| line_notation | unit_abbreviation | solvation free energy, 298 K |
| --- | --- | --- |
| CCCCCC | kJ/mol | -16.8 |
| CCCCCCCCC | kJ/mol | -25.4 |
| CCCCC | kJ/mol | -13.8 |
| CC(C)CCC(C)C | kJ/mol | -20.5 |
| C[N+](=O)[O-] | kJ/mol | -14.9 |
| CCCCCCCC | kJ/mol | -23 |
| CC(C)C(C)C(C)C | kJ/mol | -20.8 |
| CCO | kJ/mol | -16.8 |

Now take the following compound into account.
Q) # input compound: `CCCCCCC` ; wanted: its solvation free energy, 298 K
A) -19.6

###

protocol_text: solvent given as SMILES
run_conditions: in COCCOCCOCCOCCOC
measured_endpoint: solvation free energy, 298 K (kcal/mol)
Numeric only. Scale: kcal/mol

Observe how each entry below is paired with its result.
| line_notation | solvation free energy, 298 K [kcal/mol] |
| --- | --- |
| CCCCCCC | -3.41 |
| CCCCC | -2.2 |
| CCCCCCCC | -4.01 |

Would you kindly look at the next entry?
Q) I am curious: what solvation free energy, 298 K value has been reported for `CCCCCC` ?
A) -2.82

###

solvation free energy, 298 K values by entry
protocol_text: solvent given as SMILES
run_conditions: in OCc1ccco1
Answer with a number only, understood to be in kcal/mol.

# count of solved cases: 3
| line_notation | solvation free energy, 298 K [kcal/mol] |
| --- | --- |
| CCCCCC | -2.27 |
| C#CCCCCC | -3.93 |
| CCCCCCC | -2.87 |

Q) Requested field: solvation free energy, 298 K. Item: `CCCCC`
A) -1.67

###

protocol_text: solvent given as SMILES
run_conditions: in Brc1cccc2ccccc12
measured_endpoint: solvation free energy, 298 K (kcal/mol)
Express it in kcal/mol; write the number only.

A selection of reference data follows.
| line_notation | solvation free energy, 298 K / kcal/mol |
| --- | --- |
| CCCCCC | -3.07 |
| CCI | -3.97 |
| CCOC(C)=O | -3.95 |

Q) What value of measured solvation free energy, 298 K is listed for `CC#N` ?
A) -3.45

Q) Entry `CI` : reported solvation free energy, 298 K = ?
A) -3.3

Q) Any idea what its solvation free energy, 298 K is? The molecule is `CCCCl`
A) -3.29

Q) If you can, please state the reported solvation free energy, 298 K value of `C1=CCC=C1` .
A) -2.84

Q) Consider the molecule shown here: `CC(C)=O` What is its recorded solvation free energy, 298 K?
A) -3.32

Provenance of the data: the CombiSolv-Exp solvation set (Vermeire and Green 2021)
